Data provenance is patent US20070213301A1.

system: HCV replicon; test: HCV replicon replication assay (NPTII ELISA); format: cell-based, Hepatitis C virus (Huh-7 cells); details: Hepatitis C virus, Huh-7, 72 h, inhibition of HCV replicon replication in Huh-7 HCV replicon-containing cells, three days incubation, NPT level by ELISA; read-out: EC50
pEC50: −log10 of the molar value.

COMPOUND | pEC50
CC(C)COc1ccc(N(C(N)=O)c2nc(-c3ccc(F)c(F)c3)cs2)cc1C(F)(F)F | > 6.00
CCCCCCCCOc1ccc(N(C(=O)COC(C)=O)c2nc(-c3cccnc3)cs2)cc1C(F)(F)F | > 6.00
CCCCCOc1ccc(N(C(=O)C(=O)OC)c2nc(-c3cccnc3)cs2)cc1C(F)(F)F | > 6.00
CCCCCN(C)c1ccc(N(C(N)=O)c2nc(-c3ccccn3)cs2)cc1C(F)(F)F | > 6.00
CCCCCOc1ccc2c(c1)[nH]c(=O)c(=O)n2-c1nc(-c2cccnc2)cs1 | < 5.00
CCCCCN(C)c1ccc(N(C(N)=O)c2nc(-c3ccc4c(c3)NC(=O)CO4)cs2)cc1C(F)(F)F | 5.00 to 6.00
CCCCCOc1ccc(N(C(=O)C(=O)OC)c2nc(-c3ccncc3)cs2)cc1C(F)(F)F | > 6.00
CCCCCCCCOc1ccc(N(C(N)=O)c2nc(-c3ccc(F)cc3)cs2)cc1 | 5.00 to 6.00
CCCCCOc1ccc(N(C(=O)NCC)c2nc(-c3cccnc3)cs2)cc1C(F)(F)F | > 6.00
CCCCCOc1ccc(N(C(=O)OC)c2nc(-c3ccncc3)cs2)cc1C(F)(F)F | > 6.00
CCCCCCCCOc1ccc(N(C(=O)OC)c2nc(-c3ccc(F)c(F)c3)cs2)cc1 | 5.00 to 6.00
CCCCCCCCOc1ccc(N(C(C)=O)c2nc(-c3cccnc3)c(F)s2)cc1C(F)(F)F | > 6.00
CCCCCCCCOc1ccc(N(C(=O)CO)c2nc(-c3cccnc3)c(F)s2)cc1C(F)(F)F | > 6.00
CCCCCCCOc1ccc(N(C(=O)C(=O)OC)c2nc(-c3ccc(Cl)s3)cs2)cc1 | > 6.00
CCCCCCCCc1ccc(N(C(=O)OCOC(=O)C(N)C(C)C)c2nc(-c3cccnc3)c(F)s2)cc1C(F)(F)F (centres unmarked) | > 6.00
CCCCCOc1ccc(N(C(=O)COC(C)=O)c2nc(-c3cccnc3)cs2)cc1C(F)(F)F | > 6.00
CCCCCCCCOc1ccc(N(C(=O)OC)c2nc(-c3ccc(F)cc3)cs2)cc1 | 5.00 to 6.00
CCCCCOc1ccc(N(C)c2nc(C(=O)Nc3ccc(Cl)cc3)cs2)cc1C(F)(F)F | 5.00 to 6.00
Cc1ccc(-c2csc(N(C(N)=O)c3ccc(OCC4CCCCC4)c(F)c3)n2)cn1 | 5.00 to 6.00
CCCCCOc1ccc(N(C(=O)COC(C)=O)c2nc(-c3ccc(F)c(F)c3)cs2)cc1C(F)(F)F | > 6.00
CCCCCCOc1ccc(N(C(N)=O)c2nc(-c3ccncc3)cs2)cc1 | 5.00 to 6.00
CCCCCCCCOc1ccc(N(C(=O)CCC(=O)O)c2nc(-c3cccnc3)cs2)cc1C(F)(F)F | > 6.00
CCCCCOc1ccc(N(C(=O)C(C)OC(C)=O)c2nc(-c3cccnc3)cs2)cc1C(F)(F)F (centres unmarked) | > 6.00
CN(C)CC(=O)N(c1ccc(OCCCCc2cccs2)c(C(F)(F)F)c1)c1nc(-c2cccnc2)c(F)s1 | > 6.00
CCCCCCCC(F)(F)c1ccc(N(C(C)=O)c2nc(-c3cccnc3)cs2)cc1 | > 6.00
CCCCCCCCOc1ccc(N(C(=O)CC(=O)OC)c2nc(-c3ccc(F)cc3)cs2)cc1 | > 6.00
CCCCCOc1ccc(N(C)c2nc(-c3ccc(CN4CCOCC4)nc3)cs2)cc1C(F)(F)F | 5.00 to 6.00
NC(=O)N(c1ccc(OCC2CCCCC2)c(F)c1)c1nc(-c2ccc(F)cc2)cs1 | 5.00 to 6.00
CCCCCOc1ccc(N(C(N)=O)c2nc(-c3cccnc3)cs2)cc1C(F)(F)F | > 6.00
CCCCCOc1ccc(N(C(C)=O)c2nc(-c3cccnc3)cs2)cc1F | > 6.00
CCCCCCCCOc1ccc(N(C(=O)c2cccnc2)c2nc(-c3nc4ccccc4s3)cs2)cc1 | 5.00 to 6.00
CCCCCCCCOc1ccc(N(C(=O)NCC(=O)O)c2nc(-c3cccnc3)cs2)cc1C(F)(F)F | > 6.00
